Species: Mus musculus
TEST DETAILS: Ratio of concentration that reduced cell viability to inhibitory concentration for LPS-induced B cell proliferation
Type: functional
Answer each item with its documented Selectivity index.
Write no unit; give the number alone.

Item: CC(C(=O)O)c1ccc(O[C@H]2O[C@@H]3OC4(C)CCC5[C@H](C)CC[C@@H]([C@H]2C)[C@]53OO4)cc1 (single isomer, unassigned) | Selectivity index: 7

Item: C[C@H]1[C@@H](Oc2ccc(OCC(=O)OCCN(C)C)cc2)O[C@@H]2OC3(C)CC[C@H]4[C@H](C)CC[C@@H]1[C@@]24OO3 (single isomer, unassigned) | Selectivity index: 42

Item: COC(=O)C(C)c1ccc(O[C@H]2O[C@@H]3OC4(C)CC[C@H]5[C@H](C)CC[C@@H]([C@H]2C)[C@@]35OO4)cc1 (single isomer, unassigned) | Selectivity index: 8

Item: `CCOC(=O)CNC(=O)c1ccc(O[C@H]2O[C@@H]3O[C@]4(C)CC[C@H]5[C@H](C)CC[C@@H]([C@H]2C)[C@@]35OO4)cc1` | Selectivity index: 2421

Item: COC(=O)COc1ccc(O[C@H]2OC3OC4(C)CC[C@H]5[C@H](C)CC[C@@H]([C@H]2C)[C@@]35OO4)cc1 (single isomer, unassigned) | Selectivity index: 28473

Item: C[C@H]1[C@@H](Oc2ccc(CCC(=O)O)cc2)O[C@@H]2OC3(C)CC[C@H]4[C@H](C)CC[C@@H]1[C@@]24OO3 (single isomer, unassigned) | Selectivity index: 97

Item: C[C@H]1[C@H](OC(=O)CCC(=O)O)O[C@@H]2O[C@@]3(C)CC[C@H]4[C@H](C)CC[C@@H]1[C@@]24OO3 [ARTESUNATE] | Selectivity index: 33

Item: `CO[C@H]1O[C@@H]2O[C@@]3(C)CC[C@H]4[C@H](C)CC[C@@H]([C@H]1C)[C@@]24OO3` | Selectivity index: 48

Item: CCOC(=O)C(C)Oc1cccc(OC2OC3OC4(C)CC[C@H]5[C@H](C)CC[C@@H]([C@H]2C)[C@@]35OO4)c1 (single isomer, unassigned) | Selectivity index: 4

Item: CCOC(=O)C(C)Oc1cccc(O[C@H]2O[C@@H]3OC4(C)CC[C@H]5[C@H](C)CC[C@@H]([C@H]2C)[C@@]35OO4)c1 (single isomer, unassigned) | Selectivity index: 5

Item: CC(Oc1cccc(OC2O[C@@H]3O[C@]4(C)CC[C@H]5[C@H](C)CC[C@@H]([C@H]2C)[C@@]35OO4)c1)C(=O)O (stereo not given in full) | Selectivity index: 47

Item: COC(=O)Cc1ccc(O[C@H]2O[C@@H]3OC4(C)CCC5[C@H](C)CC[C@@H]([C@H]2C)[C@]53OO4)cc1 (single isomer, unassigned) | Selectivity index: 45

Item: CC(Oc1cccc(O[C@@H]2OC3OC4(C)CCC5[C@H](C)CC[C@@H]([C@H]2C)[C@@]35OO4)c1)C(=O)O (single isomer, unassigned) | Selectivity index: 5

Item: C[C@H]1[C@@H](Oc2cccc(OC(=O)CCC(=O)O)c2)O[C@@H]2O[C@]3(C)CCC4[C@H](C)CC[C@@H]1[C@]42OO3 (stereo not given in full) | Selectivity index: 199

Item: COc1ccccc1OC(=O)C(C)Oc1cccc(O[C@H]2O[C@@H]3OC4(C)CC[C@H]5[C@H](C)CC[C@@H]([C@H]2C)[C@@]35OO4)c1 (single isomer, unassigned) | Selectivity index: 5

Item: `C/C=C/C[C@@H](C)[C@@H](O)[C@H]1C(=O)N[C@@H](CC)C(=O)N(C)CC(=O)N(C)[C@@H](CC(C)C)C(=O)N[C@@H](C(C)C)C(=O)N(C)[C@@H](CC(C)C)C(=O)N[C@@H](C)C(=O)N[C@H](C)C(=O)N(C)[C@@H](CC(C)C)C(=O)N(C)[C@@H](CC(C)C)C(=O)N(C)[C@@H](C(C)C)C(=O)N1C` | Selectivity index: 7

Item: `C[C@@H]1CC[C@H]2[C@@H](C)C(=O)O[C@@H]3O[C@@]4(C)CC[C@@H]1[C@]32OO4` | Selectivity index: 3
